- assay system: Polyadenylate-binding protein 1 (Homo sapiens)
- Sequence (P11940 whole entry): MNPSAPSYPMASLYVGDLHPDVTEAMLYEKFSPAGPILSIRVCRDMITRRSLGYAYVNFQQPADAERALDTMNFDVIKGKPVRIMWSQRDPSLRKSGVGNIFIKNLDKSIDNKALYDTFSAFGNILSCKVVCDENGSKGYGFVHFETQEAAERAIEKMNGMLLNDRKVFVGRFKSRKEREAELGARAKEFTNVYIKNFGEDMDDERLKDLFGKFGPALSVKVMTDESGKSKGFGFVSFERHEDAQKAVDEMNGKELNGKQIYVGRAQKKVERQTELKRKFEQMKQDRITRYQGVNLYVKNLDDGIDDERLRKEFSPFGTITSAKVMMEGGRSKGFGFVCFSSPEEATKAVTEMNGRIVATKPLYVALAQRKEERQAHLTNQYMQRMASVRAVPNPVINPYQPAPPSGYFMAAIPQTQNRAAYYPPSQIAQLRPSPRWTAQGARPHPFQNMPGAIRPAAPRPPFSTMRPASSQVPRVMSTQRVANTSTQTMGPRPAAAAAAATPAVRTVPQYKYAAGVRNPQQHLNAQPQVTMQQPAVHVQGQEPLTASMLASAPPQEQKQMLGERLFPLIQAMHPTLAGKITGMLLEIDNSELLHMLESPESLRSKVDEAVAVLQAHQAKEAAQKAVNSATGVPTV
- test description: PABP1 MLLE–PAM2 interaction inhibitors, dose response, miRNA deadenylation inhibitor project, biochemical, fluorescence polarization, Cy5-PAM2 peptide, secondary (AID 602260)
- Assay type: functional
- conditions used: read-out: IC50_Mean
The source made the active and inactive calls. How the calls were made is not given here.
test readout: IC50

molecule: Cc1ccc(NC(=O)CC2SC(=O)N(c3ccccc3)C2=O)cc1 (stereo not drawn)
test readout: IC50
test result: > 66 µM (inactive)

molecule: Cc1cc2cc(CNC(=O)c3cccs3)ccc2n1C
test readout: IC50
test result: > 66 µM (inactive)

molecule: Cc1cc2cc(CNC(=O)Cc3ccc([N+](=O)[O-])cc3)ccc2n1C
test readout: IC50
test result: > 66 µM (inactive)

Data credit: ChEMBL document CHEMBL1201862
